Just for reference, patent US11844843 is where these values come from.

# EC50 per record follows
- measured_target: T1, recombinant human TfR1 (transferrin receptor protein 1) (human, UniProt P02786 89-760)
- T1 construct: Recombinant protein in SPR and ELISA; they were assigned to this molecule; also called hTfR1; huTfR1
- T1 sequence (P02786 89-760 limits assumed): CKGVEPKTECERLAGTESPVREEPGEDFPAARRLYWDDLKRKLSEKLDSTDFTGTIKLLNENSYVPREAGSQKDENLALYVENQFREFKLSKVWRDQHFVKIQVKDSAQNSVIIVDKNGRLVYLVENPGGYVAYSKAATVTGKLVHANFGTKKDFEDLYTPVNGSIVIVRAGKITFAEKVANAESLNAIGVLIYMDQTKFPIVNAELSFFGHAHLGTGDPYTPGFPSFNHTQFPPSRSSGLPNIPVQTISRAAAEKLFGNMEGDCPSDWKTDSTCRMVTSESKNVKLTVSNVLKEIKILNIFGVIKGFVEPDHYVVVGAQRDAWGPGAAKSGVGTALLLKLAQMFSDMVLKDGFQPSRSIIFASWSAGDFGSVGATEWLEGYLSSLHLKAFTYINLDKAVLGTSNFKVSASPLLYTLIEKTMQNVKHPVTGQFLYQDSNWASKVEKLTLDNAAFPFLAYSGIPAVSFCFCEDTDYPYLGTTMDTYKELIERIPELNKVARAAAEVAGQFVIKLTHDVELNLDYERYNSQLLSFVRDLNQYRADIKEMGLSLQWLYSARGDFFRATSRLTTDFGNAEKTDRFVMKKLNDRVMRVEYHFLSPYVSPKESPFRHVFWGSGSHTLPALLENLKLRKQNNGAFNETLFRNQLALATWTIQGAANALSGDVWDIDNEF
- assay_comment: ELISA, recombinant TfR1 coated, unconjugated Fab (row 'Fab binding affinity ELISA')
Please reply with the bare figure in nM and do not write the unit itself.

Some binders with known EC50 results, for comparison:
{"binder": "humanized anti-TfR Fab 5H12 VH5 (C33Y)/Vκ3 (Fab, V domains shown, also called 5H12 (VH5-C33Y/Vk3)) VH: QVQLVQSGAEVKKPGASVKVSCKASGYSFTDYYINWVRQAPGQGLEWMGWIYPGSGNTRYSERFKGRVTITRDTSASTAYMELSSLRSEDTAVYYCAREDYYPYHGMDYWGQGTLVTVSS VL: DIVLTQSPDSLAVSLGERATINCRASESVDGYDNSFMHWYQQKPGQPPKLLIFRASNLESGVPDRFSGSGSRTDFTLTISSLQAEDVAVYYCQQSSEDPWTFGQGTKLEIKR", "EC50 (nM)": 6.3}
{"binder": "humanized anti-TfR Fab 3M12 VH4/Vκ3 (Fab, V domains shown, also called 3M12 (VH4/Vk3); anti-TfR Fab 3M12 VH4/Vk3) VH: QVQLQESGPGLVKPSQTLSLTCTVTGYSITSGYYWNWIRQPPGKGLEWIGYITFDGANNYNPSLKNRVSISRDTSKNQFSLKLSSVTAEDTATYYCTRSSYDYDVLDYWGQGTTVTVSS VL: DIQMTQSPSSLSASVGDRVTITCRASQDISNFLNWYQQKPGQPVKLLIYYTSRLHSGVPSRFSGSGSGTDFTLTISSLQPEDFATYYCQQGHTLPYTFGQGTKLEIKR", "EC50 (nM)": 0.5}

--- query ---
Input: Request the reported EC50 associated with humanized anti-TfR Fab 5H12 VH5 (C33Y)/Vκ4 (Fab, V domains shown, also called 5H12 (VH5-C33Y/Vk4)) VH: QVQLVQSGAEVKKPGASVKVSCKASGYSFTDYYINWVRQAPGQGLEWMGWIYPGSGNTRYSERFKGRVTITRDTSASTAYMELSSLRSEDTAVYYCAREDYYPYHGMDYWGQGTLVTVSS VL: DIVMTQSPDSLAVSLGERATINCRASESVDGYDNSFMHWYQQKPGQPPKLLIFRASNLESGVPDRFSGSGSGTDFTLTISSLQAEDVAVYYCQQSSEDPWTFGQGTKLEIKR
Output: 2.8
